Biological target: LRRK2 (Homo sapiens, UniProt Q5S007)
Sequence (Q5S007 970-2527 limits assumed): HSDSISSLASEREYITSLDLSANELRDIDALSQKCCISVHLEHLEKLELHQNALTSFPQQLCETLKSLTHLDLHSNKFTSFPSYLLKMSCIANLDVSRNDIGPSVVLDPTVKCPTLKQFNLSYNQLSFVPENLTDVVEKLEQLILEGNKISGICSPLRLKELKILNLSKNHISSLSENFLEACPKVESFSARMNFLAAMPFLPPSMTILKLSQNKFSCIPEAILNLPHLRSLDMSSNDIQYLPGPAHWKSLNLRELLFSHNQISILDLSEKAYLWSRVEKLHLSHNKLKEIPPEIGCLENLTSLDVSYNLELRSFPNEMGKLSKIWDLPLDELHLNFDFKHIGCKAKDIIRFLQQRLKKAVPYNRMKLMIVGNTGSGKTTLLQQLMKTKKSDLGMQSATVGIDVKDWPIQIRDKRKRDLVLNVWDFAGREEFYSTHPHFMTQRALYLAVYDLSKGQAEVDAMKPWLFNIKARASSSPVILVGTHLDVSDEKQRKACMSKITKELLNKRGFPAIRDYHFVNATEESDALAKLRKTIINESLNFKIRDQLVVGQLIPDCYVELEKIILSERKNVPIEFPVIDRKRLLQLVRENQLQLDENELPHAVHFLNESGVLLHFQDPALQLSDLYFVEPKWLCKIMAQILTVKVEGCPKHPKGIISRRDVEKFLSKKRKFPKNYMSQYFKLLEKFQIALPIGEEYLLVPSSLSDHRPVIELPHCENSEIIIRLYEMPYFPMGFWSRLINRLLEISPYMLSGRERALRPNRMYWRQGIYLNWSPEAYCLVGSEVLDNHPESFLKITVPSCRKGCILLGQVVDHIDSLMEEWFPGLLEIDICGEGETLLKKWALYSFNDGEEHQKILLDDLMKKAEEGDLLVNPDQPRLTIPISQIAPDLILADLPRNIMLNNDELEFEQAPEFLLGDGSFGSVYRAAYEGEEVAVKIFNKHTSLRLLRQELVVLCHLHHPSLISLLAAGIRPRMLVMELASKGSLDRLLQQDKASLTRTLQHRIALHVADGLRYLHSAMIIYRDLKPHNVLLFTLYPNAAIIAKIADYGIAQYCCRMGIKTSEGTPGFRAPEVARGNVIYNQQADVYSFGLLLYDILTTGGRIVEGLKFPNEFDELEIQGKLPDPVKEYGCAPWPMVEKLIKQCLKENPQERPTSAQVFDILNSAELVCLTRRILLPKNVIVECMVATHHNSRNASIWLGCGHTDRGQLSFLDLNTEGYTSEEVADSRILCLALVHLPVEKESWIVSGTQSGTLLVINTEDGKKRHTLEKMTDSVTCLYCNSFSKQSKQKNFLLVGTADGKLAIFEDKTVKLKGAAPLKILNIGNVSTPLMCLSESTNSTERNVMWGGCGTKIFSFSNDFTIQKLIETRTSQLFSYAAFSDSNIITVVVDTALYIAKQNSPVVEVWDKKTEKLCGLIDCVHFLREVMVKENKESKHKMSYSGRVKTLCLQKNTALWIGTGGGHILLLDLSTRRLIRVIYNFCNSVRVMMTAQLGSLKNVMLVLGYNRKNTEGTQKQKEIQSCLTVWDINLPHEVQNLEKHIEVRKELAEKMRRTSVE
Experiment: LRRK2-LRRK2 G2019S-Assay (LanthaScreen Eu Kinase Binding Assay)
Conditions: 5 nM LRRK2 or their mutants, 10 nM tracer 236, RT 1 h; read-out: LRRK2 Activities: IC50
pIC50: −log10 of the molar value.
This listing pairs molecules with measured pIC50.

Please review the following examples before continuing.
[
  {
    "SMILES": "CN1CCN(c2ccc(Nc3nc(-c4ccsc4)nc4cn[nH]c34)cc2)CC1",
    "pIC50": "6.00 to 7.00"
  },
  {
    "SMILES": "COc1ccc(Nc2nc(-c3nccs3)nc3cn[nH]c23)cc1OC",
    "pIC50": "7.00 to 8.00"
  },
  {
    "SMILES": "CC(C)(C)N1CCN(c2ccc(Nc3nc(-c4ccsc4)nc4cn[nH]c34)cc2)CC1",
    "pIC50": "7.00 to 8.00"
  }
]

Input: Requested field: pIC50. Item: CN1CCN(C(=O)c2ccc(Nc3nc(-c4cccs4)nc4cn[nH]c34)cc2)CC1
Output: 6.00 to 7.00

Input: Entry to check: c1csc(-c2nc(Nc3ccc(N4CCN(C5CC5)CC4)cc3)c3[nH]ncc3n2)c1
Output: 6.00 to 7.00

Input: Entry to check: CC(=O)N1CCN(c2ccc(Nc3nc(-c4cccc(S(N)(=O)=O)c4)nc4cn[nH]c34)cc2)CC1
Output: 6.00 to 7.00

Input: Entry to check: CN1CCN(c2ccc(Nc3nc(-c4cscn4)nc4cn[nH]c34)cc2)CC1
Output: 6.00 to 7.00

Input: Entry to check: COc1ccc(Nc2nc(-c3cccc(-c4cccnc4)c3)nc3cn[nH]c23)cc1OC
Output: 6.00 to 7.00

Input: Entry to check: COc1ccc(-c2nc(Nc3ccc4c(c3)NC(=O)CC4)c3[nH]ncc3n2)cc1
Output: 6.00 to 7.00

Input: Entry to check: COc1ccc(-c2nc(Nc3cc[nH]n3)c3[nH]ncc3n2)cc1OC
Output: 6.00 to 7.00

Input: Entry to check: CN1CCN(c2ccc(Nc3nc(-c4cccs4)nc4cn[nH]c34)cc2)CC1
Output: 7.00 to 8.00

Input: Entry to check: COc1ccc(Nc2nc(-c3ccccc3OC)nc3cn[nH]c23)cc1OC
Output: 6.00 to 7.00

Input: Entry to check: COc1ccc(-c2nc(Nc3ccc(N4CCS(=O)(=O)CC4)cc3)c3[nH]ncc3n2)cc1
Output: 6.00 to 7.00

Input: Entry to check: CN1CCN(c2ccc(Nc3nc(-c4cccc(S(N)(=O)=O)c4)nc4cn[nH]c34)cc2)CC1
Output: 7.00 to 8.00

Input: Entry to check: CN1CCN(c2ccc(Nc3nc(-c4cccc(NS(C)(=O)=O)c4)nc4cn[nH]c34)cc2)CC1
Output: 6.00 to 7.00

Input: Entry to check: O=S1(=O)CCN(c2ccc(Nc3nc(-c4cccs4)nc4cn[nH]c34)cc2)CC1
Output: 7.00 to 8.00

Input: Entry to check: c1cc(-c2nc(Nc3ccc4c(c3)NCCO4)c3[nH]ncc3n2)cs1
Output: 7.00 to 8.00

Input: Entry to check: CC(=O)N1CCN(c2ccc(Nc3nc(-c4ccsc4)nc4cn[nH]c34)cc2)CC1
Output: > 8.00

Input: Entry to check: COc1cccc(-c2nc(Nc3ccc(CN4CCN(C)CC4)cc3)c3[nH]ncc3n2)c1
Output: 6.00 to 7.00
